# credit: PubChem BioAssay (NCI)

method: NCI Yeast Anticancer Drug Screen. Data for the rad50 strain (AID 155);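 also: 0% = growth of vehicle-only cultures of the same strain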
condition.notes: S. cerevisiae rad50 strain growth inhibition; at 50.0 µM; hits give high values
Compounds without any hit were thinned out: in the full panel of roughly 79,000, 15% have a hit.
Collected growth inhibition values appear next to each entry.
Write the answer as a number in %, unit excluded.

// returns reported growth inhibition for input O=C(O)CNC(=S)SCc1ccccc1 10

And N#CCCNCCC[Si]12OCCN(CCO1)CCO2 ? 6.5

Repeat for the following compound: CC(=O)OCc1ccc([N+](=O)[O-])cc1 -1.65

Cool, now O=C1NCCCCC1CC/C=C/c1ccccc1 (configuration not stated) -13.7

Now this one: Nc1ccc(F)c([N+](=O)[O-])c1 -6.05

What do we get for COC(=O)CCC(=O)c1ccc2c(c1)CCC2 ? -3.25

And the next one, Cc1c2sc3ccccc3[nH]c2nc2[nH]c3ccccc3sc12 ? -24.9
